Target: SIX1-Q177R homeodomain (human, UniProt Q15475 108-198, Q177R)
Sequence: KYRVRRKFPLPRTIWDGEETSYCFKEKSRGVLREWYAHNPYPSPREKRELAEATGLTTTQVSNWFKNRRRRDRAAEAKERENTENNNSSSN
Experiment: universal protein binding microarray; Universal all-10-mer PBM (8x60K, AMADID 030236), 300 nM GST-tagged protein, Alexa Fluor 488 anti-GST; buffer, salt, pH and temperature not stated (as in Berger); high values mean tight binding
Details: protein: ivt; tags: N-terminal GST; dsDNA, one strand shown
The full ranking holds about 33,000 sequences; the median of “e-score” is about -0.05, and the highest 2% start at about 0.38. For the sample, the highest values were picked, then their nearest neighbours and some sequences at random.
Values of binding signal strictly less than 0.2 E-score map to Satisfied, and values of at least 0.2 E-score map to Not satisfied.

sequence.entry: ATACACAG
assigned.category: Satisfied
//
sequence.entry: CACTTACC
assigned.category: Not satisfied
//
sequence.entry: CACACGAG
assigned.category: Not satisfied
//
sequence.entry: ACACTTTA
assigned.category: Not satisfied
//
sequence.entry: CCACCTTC
assigned.category: Satisfied
//
sequence.entry: ACCCCTTG
assigned.category: Not satisfied
//
sequence.entry: CACACGAA
assigned.category: Not satisfied
//
sequence.entry: ACACTTTG
assigned.category: Not satisfied
//
sequence.entry: CCCACCAC
assigned.category: Satisfied
//
sequence.entry: GGGTGTGA
assigned.category: Not satisfied
//
sequence.entry: CACGGTAC
assigned.category: Satisfied
//
sequence.entry: GAGATACC
assigned.category: Not satisfied
//
sequence.entry: ACCCCTTC
assigned.category: Not satisfied
//
sequence.entry: CGGGGTGA
assigned.category: Satisfied
//
sequence.entry: ACGCCCAC
assigned.category: Not satisfied
//
sequence.entry: ATTGGTGC
assigned.category: Satisfied
//
sequence.entry: CGGTGTGC
assigned.category: Not satisfied
//
sequence.entry: TAGGTACA
assigned.category: Satisfied
//
sequence.entry: GTACCTAC
assigned.category: Satisfied
//
sequence.entry: CCGCGTCA
assigned.category: Satisfied
//
sequence.entry: CACGACTG
assigned.category: Satisfied
//
sequence.entry: CGGTGAGA
assigned.category: Satisfied

====

Biological target: SIX1-Q177R homeodomain (human, UniProt Q15475 108-198, Q177R)
Sequence: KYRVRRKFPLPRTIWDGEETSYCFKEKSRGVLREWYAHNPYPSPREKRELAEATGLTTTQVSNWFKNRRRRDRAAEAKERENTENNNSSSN
Assay: universal protein binding microarray; Universal all-10-mer PBM (8x60K, AMADID 030236), 300 nM GST-tagged protein, Alexa Fluor 488 anti-GST; buffer, salt, pH and temperature not stated (as in Berger); high values mean tight binding
Settings: protein: ivt; tags: N-terminal GST; dsDNA, one strand shown
Whole data set: some 33,000 sequences, median “e-score” near -0.05, cut for the highest 2% near 0.38. What follows is part of a selection rich in the highest values, with near analogues and random picks from the rest.

sequence.entry: AGTGTCAA
binding signal: 0.424 E-score

sequence.entry: CCCCAAGA
binding signal: 0.156 E-score

sequence.entry: GCACACGC
binding signal: 0.256 E-score

sequence.entry: GGCGTCAA
binding signal: 0.177 E-score

sequence.entry: GATACCGA
binding signal: 0.214 E-score

sequence.entry: GTGTATGA
binding signal: 0.412 E-score

sequence.entry: GTGTCGCA
binding signal: 0.442 E-score

sequence.entry: GGGTAGTA
binding signal: 0.161 E-score

sequence.entry: ACGTAGTG
binding signal: 0.23 E-score

sequence.entry: AGTAGGGG
binding signal: 0.196 E-score

sequence.entry: GTGTCGTA
binding signal: 0.45 E-score

sequence.entry: GTGTCTTA
binding signal: 0.363 E-score

sequence.entry: CCCGATCC
binding signal: 0.239 E-score

sequence.entry: ATACCCTG
binding signal: 0.31 E-score

sequence.entry: AGTGTCCG
binding signal: 0.365 E-score

sequence.entry: CCACCCTA
binding signal: 0.174 E-score

sequence.entry: CCCCCGCA
binding signal: 0.218 E-score

sequence.entry: GTGCTGTA
binding signal: 0.164 E-score

sequence.entry: GGGTATGA
binding signal: 0.186 E-score

sequence.entry: AGTGTCTG
binding signal: 0.302 E-score

sequence.entry: CCACACGA
binding signal: 0.234 E-score

sequence.entry: ACCCCACC
binding signal: 0.327 E-score

sequence.entry: AAAACACC
binding signal: 0.437 E-score

sequence.entry: ACAGAGTG
binding signal: 0.184 E-score

sequence.entry: ACACACAA
binding signal: 0.244 E-score

sequence.entry: CTCGGGTC
binding signal: 0.155 E-score

sequence.entry: TCACACGA
binding signal: 0.226 E-score

sequence.entry: GTGTATCA
binding signal: 0.392 E-score

sequence.entry: CCGGATCA
binding signal: 0.176 E-score

sequence.entry: ACTTGCAC
binding signal: 0.175 E-score

sequence.entry: CACTCCTG
binding signal: 0.335 E-score

sequence.entry: TAAACACA
binding signal: 0.214 E-score

sequence.entry: ACACACGA
binding signal: 0.251 E-score

sequence.entry: ACGCGTCC
binding signal: 0.174 E-score

sequence.entry: CCACTCCA
binding signal: 0.152 E-score

sequence.entry: GTCGAGTA
binding signal: 0.198 E-score

sequence.entry: AAAACACT
binding signal: 0.301 E-score

sequence.entry: ACAGTGTA
binding signal: 0.381 E-score

sequence.entry: ACACACCA
binding signal: 0.415 E-score

sequence.entry: ATGCGACA
binding signal: 0.198 E-score

sequence.entry: ACCAGTGA
binding signal: 0.189 E-score

sequence.entry: GTGTGGCA
binding signal: 0.246 E-score

sequence.entry: ACGATACC
binding signal: 0.357 E-score

sequence.entry: GTGTAGCA
binding signal: 0.425 E-score

sequence.entry: CTGATACC
binding signal: 0.312 E-score

sequence.entry: TCACAACA
binding signal: 0.195 E-score

sequence.entry: ACACTCCC
binding signal: 0.404 E-score

sequence.entry: GTGTGGGA
binding signal: 0.286 E-score

sequence.entry: GAAACACC
binding signal: 0.455 E-score

sequence.entry: AGTGTCAT
binding signal: 0.462 E-score

sequence.entry: GGTGCACA
binding signal: 0.268 E-score

sequence.entry: CCCTGCAC
binding signal: 0.178 E-score

sequence.entry: ACCCTCTC
binding signal: 0.164 E-score

sequence.entry: GTATCGCA
binding signal: 0.234 E-score

sequence.entry: GTGTAGTA
binding signal: 0.464 E-score

sequence.entry: CACCTTTA
binding signal: 0.223 E-score

sequence.entry: CCACACCA
binding signal: 0.393 E-score

sequence.entry: ACTCTCCC
binding signal: 0.163 E-score

sequence.entry: GTGTGGAA
binding signal: 0.193 E-score

sequence.entry: ACACCCTG
binding signal: 0.473 E-score

sequence.entry: GGGTAGGA
binding signal: 0.213 E-score

Values compiled from paper PMC10668032.
